- assay_remarks: AUC (0 to 4 hrs) in Sprague-Dawley rat plasma at 10 mg/kg, ip after 0.25 to 4 hrs by LC-MS/MS analysis
- Type: ADME, organism-based
- Parameters: route intraperitoneal, dose 10 mg/kg, time upper 4 hrs, time lower 0.25 hrs
quantity_name: AUC(0-t) (ng·h/mL)
The answer is to be given in ng·h/mL; state only the numeric part.

Input: Which AUC(0-t) reading was recorded for the compound Cn1nc(CN2CCCC2)nc1-c1ccc(C(C)(C)C)cc1 ?
Output: 633

###

- assay_remarks: Cmax in Sprague-Dawley rat plasma at 10 mg/kg, ip measured after 0.25 to 4 hrs by LC-MS/MS analysis
- Assay type: ADME, organism-based
- Set-up: route intraperitoneal, time upper 4 hrs, time lower 0.25 hrs, dose 10 mg/kg
quantity_name: Cmax

Input: Which Cmax reading was recorded for the molecule Cn1nc(CN2CCCC2)nc1-c1ccc(C(C)(C)C)cc1 ?
Output: 932 ng/mL
